# Target or system: human μ opioid receptor (Homo sapiens, UniProt P35372)
# Sequence (P35372 whole entry): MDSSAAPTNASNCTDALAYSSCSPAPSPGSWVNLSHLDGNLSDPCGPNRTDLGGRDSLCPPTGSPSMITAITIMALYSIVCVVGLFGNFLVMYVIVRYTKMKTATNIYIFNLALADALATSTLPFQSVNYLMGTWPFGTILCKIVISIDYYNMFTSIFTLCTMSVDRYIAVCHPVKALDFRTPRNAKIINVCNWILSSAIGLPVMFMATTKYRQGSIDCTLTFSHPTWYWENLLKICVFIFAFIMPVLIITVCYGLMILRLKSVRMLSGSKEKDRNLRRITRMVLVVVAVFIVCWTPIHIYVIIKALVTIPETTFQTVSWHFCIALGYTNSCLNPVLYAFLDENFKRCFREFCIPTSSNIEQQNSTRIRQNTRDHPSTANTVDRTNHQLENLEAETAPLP
# Assay info: [35S]GTPγS binding, stimulation and inhibition of agonist-stimulated binding
# Format: biochemical
# Condition summary: Mu Opioid Receptor; inhibition of binding stimulated by 200 nM DAMGO
Measured parameter: Imax (% maximal inhibition)

| Compound | Observed value |
| --- | --- |
| C[C@H]1C2Cc3ccc(C(=O)NCCc4ccc(-c5ccccc5)nc4)cc3[C@@]1(C)CCN2CC1CC1 | 87 |
| C[C@H]1C2Cc3ccc(C(=O)NCCc4ccc(-c5ccccc5)cn4)cc3[C@@]1(C)CCN2CC1CC1 | 53 |
| C[C@H]1C2Cc3ccc(C(=O)NCCc4ccc(-c5cccnc5)cc4)cc3[C@@]1(C)CCN2CC1CC1 | 83 |
| C[C@H]1C2Cc3ccc(C(=O)NCCc4ccc(-c5ccccn5)cc4)cc3[C@@]1(C)CCN2CC1CC1 | 87 |
| C[C@H]1C2Cc3ccc(C(N)=O)cc3[C@@]1(C)CCN2CC1CC1 [Compound 2, 8-carboxamidocyclazocine, reference compound] | 76 |
| C[C@H]1C2Cc3ccc(C(=O)NCCc4ccc(-c5ccncc5)cc4)cc3[C@@]1(C)CCN2CC1CC1 | 79 |
